Item-by-item account of inhibition of SARS-CoV-2 cytopathic effect
test system: Vero E6 infected with SARS-CoV-2; assay: inhibition of SARS-CoV-2 cytopathic effect; higher = more antiviral protection, active = above 15; conditions: 100 nM; 48 h
Your answer is read as %, so omit the unit and give the number.

Sample records with inhibition of SARS-CoV-2 cytopathic effect:
>>> result_value("CC[C@H](Nc1ncnc2[nH]cnc12)c1nc2cccc(F)c2c(=O)n1-c1ccccc1 [idelalisib]")
1.98
>>> result_value("O=C(O)COc1nn(Cc2ccccc2)c2ccccc12 [bendazac]")
0.57
>>> result_value("N[C@H]1CC[C@H](N[C@@H]2C[C@H]2c2ccccc2)CC1")
1.16

Report inhibition of SARS-CoV-2 cytopathic effect under test system Vero E6 infected with SARS-CoV-2 for N=C(N)c1cc2ccc(OC(=O)c3cccs3)cc2s1 .
2.63

Report inhibition of SARS-CoV-2 cytopathic effect under test system Vero E6 infected with SARS-CoV-2 for Cc1ccc(S(=O)(=O)c2ccc([N+](=O)[O-])o2)cc1 .
2.55

----------
system: Vero E6 infected with SARS-CoV-2; assay: morphology score (similarity to uninfected cells); higher = more like uninfected cells; details: 24 h
Item-by-item account of morphology score
Hey, just send me the number, nothing else.

Sample records with morphology score:
>>> result_value("Cc1cc(Nc2nc(N[C@@H](C)c3ccc(F)cc3)c(C#N)cc2F)n[nH]1 (10 µM)")
-0.0459
>>> result_value("CC(=O)Nc1cccc2c1c(Sc1ccc(Cl)cc1)c(C)n2CC(=O)O (10 µM)")
0.187
>>> result_value("CS(=O)(=O)OC[C@H](O)[C@@H](O)COS(C)(=O)=O [treosulfan] (10 µM)")
-0.204
>>> result_value("CC(=O)OCC(=O)[C@@]1(O)[C@@H](C)C[C@H]2[C@@H]3CCC4=CC(=O)C=C[C@]4(C)[C@@]3(F)[C@@H](O)C[C@@]21C [betamethasone-acetate] (10 µM)")
-0.021
>>> result_value("CC1CS(=O)(=O)CCN1/N=C/c1ccc([N+](=O)[O-])o1 (stereo not drawn) [nifurtimox] (10 µM)")
0.0407
>>> result_value("CC(C(=O)O)c1cccc(Oc2ccccc2)c1 (stereo not drawn) [fenoprofen] (10 µM)")
0.0202
>>> result_value("CC(C)C[C@@H](NC(=O)[C@H](Cc1ccccc1)NC(=O)CNC(=O)[C@@H](C)NC(=O)[C@@H](N)Cc1ccc(O)cc1)C(=O)O (10 µM)")
0.159

With those in mind, consider the next compound.
Answer with the recorded morphology score of COC(=O)C1=C(C)NC(C)=C(C(=O)OC2CCCN(Cc3ccccc3)C2)C1c1cccc([N+](=O)[O-])c1 (stereo not drawn) [benidipine] (10 µM) only.
0.0303

----------
Item-by-item account of inhibition of SARS-CoV-2 cytopathic effect
tested on: Vero E6 infected with SARS-CoV-2; assay: inhibition of SARS-CoV-2 cytopathic effect; higher = more antiviral protection, active = above 15; conditions: 1 nM; 48 h
Your answer is read as %, so omit the unit and give the number.

Answer with the recorded inhibition of SARS-CoV-2 cytopathic effect of CCN(CC)CCCCC1CCN(CC(=O)N2c3ccccc3C(=O)Nc3cccnc32)CC1 only.
-0.6

Answer with the recorded inhibition of SARS-CoV-2 cytopathic effect of CCOP(=S)(OCC)Oc1ccc2c(C)c(Cl)c(=O)oc2c1 only.
-3.33

Answer with the recorded inhibition of SARS-CoV-2 cytopathic effect of CN[C@@H](C)C(=O)N[C@H](C(=O)N1CCC[C@H]1C(=O)Nc1snnc1-c1ccccc1)C1CCCCC1 only.
0.62

Answer with the recorded inhibition of SARS-CoV-2 cytopathic effect of CO[C@@]1(NC(=O)CSCC#N)C(=O)N2C(C(=O)O)=C(CSc3nnnn3C)CS[C@@H]21 only.
1.84

Answer with the recorded inhibition of SARS-CoV-2 cytopathic effect of CS(=O)(=O)Nc1ccc(Cc2noc(-c3ccc4[nH]cc(CCN)c4c3)n2)cc1 only.
-2.75

----------
Item-by-item account of inhibition of SARS-CoV-2 cytopathic effect
test system: Vero E6 infected with SARS-CoV-2; assay: inhibition of SARS-CoV-2 cytopathic effect; higher = more antiviral protection, active = above 15; conditions: 1 nM; 48 h
Your answer is read as %, so omit the unit and give the number.

Sample records with inhibition of SARS-CoV-2 cytopathic effect:
>>> result_value("O=C(O)c1ccc(Nc2ncc3c(n2)-c2ccc(Cl)cc2C(c2c(F)cccc2F)=NC3)cc1")
-1.58
>>> result_value("CC12CCC(CC1=O)C2(C)C (stereo not drawn) [camphor-(+)]")
1.23
>>> result_value("CC1(C)Oc2ccc(C#N)cc2[C@H](N(Cc2ncc[nH]2)c2ccc(Cl)cc2)[C@H]1O")
0.45
>>> result_value("CNC(=O)c1cnn(-c2nc(N)c3ncn([C@@H]4O[C@H](CO)[C@@H](O)[C@H]4O)c3n2)c1 [regadenoson]")
1.53
>>> result_value("Fc1ccc(C(c2ccccc2)(c2ccccc2F)n2ccnc2)cc1 (centres undefined) [flutrimazole]")
-1.84

Answer with the recorded inhibition of SARS-CoV-2 cytopathic effect of CNC(=O)c1c(-c2ccc(F)cc2)oc2cc(N(CCO)S(C)(=O)=O)c(C3CC3)cc12 [nesbuvir] only.
0.34

Answer with the recorded inhibition of SARS-CoV-2 cytopathic effect of CCc1nc2c(C)nc(C)cc2n1-c1ccc(CCNC(=O)NS(=O)(=O)c2ccc(C)cc2)cc1 [grapiprant] only.
-1.43

Answer with the recorded inhibition of SARS-CoV-2 cytopathic effect of COc1ccc(C(=O)Nc2c(Cl)cncc2Cl)cc1OC1CCCC1 [piclamilast] only.
-1.88

Answer with the recorded inhibition of SARS-CoV-2 cytopathic effect of OC[C@H]1O[C@H](O[C@]2(CCl)O[C@H](CCl)[C@@H](O)[C@@H]2O)[C@H](O)[C@@H](O)[C@H]1Cl [sucralose] only.
0.95

----------
Item-by-item account of SARS-CoV-2 infection rate
tested on: Vero E6 infected with SARS-CoV-2; test: SARS-CoV-2 infection rate relative to infected DMSO; higher = more infection, active = 60 or less; conditions: 24 h
Counter-ions that a name gives are not always drawn.
Your answer is read as %, so omit the unit and give the number.

Sample records with SARS-CoV-2 infection rate:
>>> result_value("CN(C)CCOc1ccc(/C(=C(/CCCl)c2ccccc2)c2ccccc2)cc1 [Toremifene citrate] (10 µM)")
77
>>> result_value("CNC(=O)c1cc2c(cn1)[nH]c1ccccc12 (10 µM)")
85.5
>>> result_value("Cc1cn(C[C@H](N)C(=O)O)c(=O)n(Cc2ccsc2C(=O)O)c1=O (10 µM)")
96.5
>>> result_value("CSc1nc(NC2CCCC2)c([N+](=O)[O-])c(NC2CCCC2)n1 (10 µM)")
88
>>> result_value("CCCCC[C@H](O)/C=C/[C@H]1[C@H](O)CC(=O)[C@@H]1C/C=C\\CCCC(=O)O [dinoprostone] (10 µM)")
95.5
>>> result_value("Cc1ccc(C23CNCC2C3)cc1 (configuration not stated) [bicifadine] (10 µM)")
107
>>> result_value("Cc1cc(Nc2nc(N[C@@H](C)c3ccc(F)cc3)c(C#N)cc2F)n[nH]1 (10 µM)")
110
>>> result_value("N#Cc1ncccn1 [2-cyanopyrimidine] (10 µM)")
108
>>> result_value("COCCNC(=O)COc1ccc(OCCNC[C@H](O)COc2ccccc2)cc1 (10 µM)")
102
>>> result_value("CC1(C)OC(=O)NC1=O [dimethadione] (10 µM)")
102

Answer with the recorded SARS-CoV-2 infection rate of CC(=O)NCC(=O)N[C@H](CCC(=O)O)C(=O)O [N-acetylglycyl-D-glutamic-acid] (10 µM) only.
98

Answer with the recorded SARS-CoV-2 infection rate of CNCC[C@@H](Oc1ccccc1C)c1ccccc1 [atomoxetine] (10 µM) only.
102

Answer with the recorded SARS-CoV-2 infection rate of Cc1ccccc1N1CCN(S(=O)(=O)C[C@]23CC[C@H](C[C@@H]2NC(=O)[C@@H](N)CCS(C)(=O)=O)C3(C)C)CC1 (10 µM) only.
95

Answer with the recorded SARS-CoV-2 infection rate of CCCN(CCC)C(=O)C(CCC(=O)OCCCN1CCN(CCOC(=O)Cc2c(C)n(C(=O)c3ccc(Cl)cc3)c3ccc(OC)cc23)CC1)NC(=O)c1ccccc1 (configuration not stated) [proglumetacin] (10 µM) only.
99.5

Answer with the recorded SARS-CoV-2 infection rate of COc1cc(C(=O)N(CC[C@H]2CCCN2C)C/C(C)=C/c2ccccc2F)cc(OC)c1OC (racemic) (10 µM) only.
108

Answer with the recorded SARS-CoV-2 infection rate of O=C(Cc1cccc(OC(F)(F)F)c1)Nc1ccc(CCCCc2nnc(NC(=O)Cc3ccccn3)s2)nn1 (10 µM) only.
104

Answer with the recorded SARS-CoV-2 infection rate of CCOC(=O)Nc1ccc(NCc2c(C)cc(C)cc2C)cc1N (10 µM) only.
108
